# Test system: Saccharomyces cerevisiae
# RUN_DESCRIPTION: protein stability index of tFT-peptide fusion (C-terminal peptide) (PSI (0-1 scale)); higher = more stable (slower turnover);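 also: PSI is a weighted mean of sequencing reads over stability bins, variants kept only with over 10 reads, mCherry proximal and sfGFP distal, peptide attached via GGGS linker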
# TEST_CONTEXT: genetic background: cdc34-1; temperature: 37 C
Assign protein stability index to each entry below.
One number for each entry.

Examples with their reported protein stability index follow.
Problem: Requested read-out: protein stability index. Entry: LSFLALLLFFRI
Solution: 0.228

Problem: Requested read-out: protein stability index. Entry: FFVISVVLCLLV
Solution: 0.377

Problem: Requested read-out: protein stability index. Entry: PVSEPCAWRIIA
Solution: 0.374

Problem: Requested read-out: protein stability index. Entry: ETQKEKRENAKP
Solution: 0.649

Your task in this section: give protein stability index for each listed record.
1. SSFFFLFCFFPS
2. LLLALLFWPCPI
3. TKGIIKKINIIM
4. IFFVLVFFPGFF
5. LSVMKLFVMVGP
6. SGCWGRRLWFFN

Solution:
0.575
0.518
0.624
0.483
0.442
0.668

Your task in this section: give protein stability index for each listed record.
1. FFDLSLYSLCLC
2. YPVAWSSAIIIR
3. YFLFLRLVFLFF
4. ISHLQCFFVVML
5. FVMTYCLMSVSK
6. SSVFRLKGLMFL
7. LFFWVLTVMFVW
8. VWFLLFVVWCGS

Solution:
1. 0.623
2. 0.438
3. 0.217
4. 0.439
5. 0.0323
6. 0.622
7. 0.162
8. 0.212

Problem: Requested read-out: protein stability index. Entry: VVVFGWIGYLYL
Solution: 0.366

---

# System: Saccharomyces cerevisiae
# RUN_DESCRIPTION: protein stability index of tFT-peptide fusion (C-terminal peptide) (PSI (0-1 scale)); higher = more stable (slower turnover)
# TEST_CONTEXT: genetic background: wild type; temperature: 30 C
Assign protein stability index to each entry below.
Give bare numbers.

Problem: Requested read-out: protein stability index. Entry: ENHPATICGFYR
Solution: 0.767

Problem: Requested read-out: protein stability index. Entry: RRGWGDRLGRDA
Solution: 0.711

Problem: Requested read-out: protein stability index. Entry: VGLLCVGAGFWG
Solution: 0.652

Your task in this section: give protein stability index for each listed record.
1. YLPRREAALRRV
2. VCGYGFAVPCYT
3. WISARQHQKTRL
4. SVSSSVGRGLRV
5. SFLVLRGSGGKW
6. EVCAGDDIRYLV
7. VRWLLTSHARLT
8. TFLRGSILLVSP

Solution:
[0.712, 0.437, 0.702, 0.711, 0.713, 0.645, 0.484, 0.617]

---

# Tested on: Saccharomyces cerevisiae
# RUN_DESCRIPTION: protein stability index of tFT-peptide fusion (C-terminal peptide) (PSI (0-1 scale)); higher = more stable (slower turnover)
# TEST_CONTEXT: genetic background: wild type; temperature: 30 C
protein stability index vs 0.7: at or above is true (1), below is false (0).

Example entries and their recorded answers appear below.
Problem: In plain terms: is recorded protein stability index at least 0.7 for HLKKKLKIRLIN ?
Solution: false (0)

Problem: In plain terms: is recorded protein stability index at least 0.7 for GSSPRVFPPRFC ?
Solution: true (1)

Problem: In plain terms: is recorded protein stability index at least 0.7 for LYIQWVSRWSVQ ?
Solution: false (0)

Problem: In plain terms: is recorded protein stability index at least 0.7 for LRFGLRCPLYHL ?
Solution: true (1)

Continuing:
Problem: In plain terms: is recorded protein stability index at least 0.7 for IDSCFKEVAYGK ?
Solution: false (0)

Problem: In plain terms: is recorded protein stability index at least 0.7 for RVLSQAGSYSLC ?
Solution: false (0)

Problem: In plain terms: is recorded protein stability index at least 0.7 for PQFSPCRLALLS ?
Solution: false (0)

Problem: In plain terms: is recorded protein stability index at least 0.7 for APHAPPPSFPAP ?
Solution: true (1)

Problem: In plain terms: is recorded protein stability index at least 0.7 for KHSMGSFNNILN ?
Solution: false (0)
